Can you tell me inhibition at 100 µM for the items I'm about to list?
# Tested on: Human immunodeficiency virus 1
# Assay Procedure: Antiviral activity against VSV-G pseudotyped HIV1 infected in human SupT1 cells at 100 uM after 48 hrs by luciferase reporter gene assay relative to control
# Format: functional
# Assay Setup: Human immunodeficiency virus 1, SUP-T1, 48 h

C/C1=C\CC(=O)O[C@@]23C(=O)N[C@@H](Cc4ccccc4)[C@@H]2[C@H](C)[C@@]2(C)O[C@H]2[C@@H]3/C=C/C[C@H](C)C1=O | 81.5%
COc1cc(O)cc(C(=O)O)c1Oc1cc(C)cc(O)c1C(=O)O | 25.5%
COC(=O)c1cc(O)cc(OC)c1Oc1cc(C)cc(O)c1C(=O)O [ASTERRIC ACID] | 8.53%

GET /values?readout=inhibition at 100 µM&system=Human immunodeficiency virus 1&item= C=C1[C@@H](C)[C@H]2[C@H](Cc3ccccc3)NC(=O)[C@]23OC(=O)/C=C/[C@H](C)[C@H](O)[C@@H](C)C/C=C/[C@H]3[C@@H]1O
100%
